System: Rhizoctonia solani (Rs)
Test: Growth inhibition assay of fungal pathogens
Assay type: cell-based
Conditions: 48 h, Table 4a, read-out: Concentration at 90% Inhibition Rs
Listing: IC90 of selected compounds
experimentalEndpoint: IC90

structure=COc1ccc(F)cc1[C@H](Cn1c(=O)n(C(C)(C)C(=O)N2CCCC2)c(=O)c2c(C)c(-n3cccn3)sc21)OCC(C)(C)O experimentalendpoint=IC90 valuemeasured="10 µg/mL"
structure=COc1ccc(F)cc1[C@H](Cn1c(=O)n(C(C)(C)C(=O)N2CCCC2)c(=O)c2c(C)c(-n3cccn3)sc21)OC[C@@H](C)O experimentalendpoint=IC90 valuemeasured="10 µg/mL"
structure=COc1ccc(F)cc1[C@H](Cn1c(=O)n([C@H](C)C(=O)NC(C)C)c(=O)c2c(C)c(-n3cccn3)sc21)OC(C)C experimentalendpoint=IC90 valuemeasured="2 µg/mL"

----------
// IC50 collected for UniProt:Q00955
Sequence (Q00955 whole entry): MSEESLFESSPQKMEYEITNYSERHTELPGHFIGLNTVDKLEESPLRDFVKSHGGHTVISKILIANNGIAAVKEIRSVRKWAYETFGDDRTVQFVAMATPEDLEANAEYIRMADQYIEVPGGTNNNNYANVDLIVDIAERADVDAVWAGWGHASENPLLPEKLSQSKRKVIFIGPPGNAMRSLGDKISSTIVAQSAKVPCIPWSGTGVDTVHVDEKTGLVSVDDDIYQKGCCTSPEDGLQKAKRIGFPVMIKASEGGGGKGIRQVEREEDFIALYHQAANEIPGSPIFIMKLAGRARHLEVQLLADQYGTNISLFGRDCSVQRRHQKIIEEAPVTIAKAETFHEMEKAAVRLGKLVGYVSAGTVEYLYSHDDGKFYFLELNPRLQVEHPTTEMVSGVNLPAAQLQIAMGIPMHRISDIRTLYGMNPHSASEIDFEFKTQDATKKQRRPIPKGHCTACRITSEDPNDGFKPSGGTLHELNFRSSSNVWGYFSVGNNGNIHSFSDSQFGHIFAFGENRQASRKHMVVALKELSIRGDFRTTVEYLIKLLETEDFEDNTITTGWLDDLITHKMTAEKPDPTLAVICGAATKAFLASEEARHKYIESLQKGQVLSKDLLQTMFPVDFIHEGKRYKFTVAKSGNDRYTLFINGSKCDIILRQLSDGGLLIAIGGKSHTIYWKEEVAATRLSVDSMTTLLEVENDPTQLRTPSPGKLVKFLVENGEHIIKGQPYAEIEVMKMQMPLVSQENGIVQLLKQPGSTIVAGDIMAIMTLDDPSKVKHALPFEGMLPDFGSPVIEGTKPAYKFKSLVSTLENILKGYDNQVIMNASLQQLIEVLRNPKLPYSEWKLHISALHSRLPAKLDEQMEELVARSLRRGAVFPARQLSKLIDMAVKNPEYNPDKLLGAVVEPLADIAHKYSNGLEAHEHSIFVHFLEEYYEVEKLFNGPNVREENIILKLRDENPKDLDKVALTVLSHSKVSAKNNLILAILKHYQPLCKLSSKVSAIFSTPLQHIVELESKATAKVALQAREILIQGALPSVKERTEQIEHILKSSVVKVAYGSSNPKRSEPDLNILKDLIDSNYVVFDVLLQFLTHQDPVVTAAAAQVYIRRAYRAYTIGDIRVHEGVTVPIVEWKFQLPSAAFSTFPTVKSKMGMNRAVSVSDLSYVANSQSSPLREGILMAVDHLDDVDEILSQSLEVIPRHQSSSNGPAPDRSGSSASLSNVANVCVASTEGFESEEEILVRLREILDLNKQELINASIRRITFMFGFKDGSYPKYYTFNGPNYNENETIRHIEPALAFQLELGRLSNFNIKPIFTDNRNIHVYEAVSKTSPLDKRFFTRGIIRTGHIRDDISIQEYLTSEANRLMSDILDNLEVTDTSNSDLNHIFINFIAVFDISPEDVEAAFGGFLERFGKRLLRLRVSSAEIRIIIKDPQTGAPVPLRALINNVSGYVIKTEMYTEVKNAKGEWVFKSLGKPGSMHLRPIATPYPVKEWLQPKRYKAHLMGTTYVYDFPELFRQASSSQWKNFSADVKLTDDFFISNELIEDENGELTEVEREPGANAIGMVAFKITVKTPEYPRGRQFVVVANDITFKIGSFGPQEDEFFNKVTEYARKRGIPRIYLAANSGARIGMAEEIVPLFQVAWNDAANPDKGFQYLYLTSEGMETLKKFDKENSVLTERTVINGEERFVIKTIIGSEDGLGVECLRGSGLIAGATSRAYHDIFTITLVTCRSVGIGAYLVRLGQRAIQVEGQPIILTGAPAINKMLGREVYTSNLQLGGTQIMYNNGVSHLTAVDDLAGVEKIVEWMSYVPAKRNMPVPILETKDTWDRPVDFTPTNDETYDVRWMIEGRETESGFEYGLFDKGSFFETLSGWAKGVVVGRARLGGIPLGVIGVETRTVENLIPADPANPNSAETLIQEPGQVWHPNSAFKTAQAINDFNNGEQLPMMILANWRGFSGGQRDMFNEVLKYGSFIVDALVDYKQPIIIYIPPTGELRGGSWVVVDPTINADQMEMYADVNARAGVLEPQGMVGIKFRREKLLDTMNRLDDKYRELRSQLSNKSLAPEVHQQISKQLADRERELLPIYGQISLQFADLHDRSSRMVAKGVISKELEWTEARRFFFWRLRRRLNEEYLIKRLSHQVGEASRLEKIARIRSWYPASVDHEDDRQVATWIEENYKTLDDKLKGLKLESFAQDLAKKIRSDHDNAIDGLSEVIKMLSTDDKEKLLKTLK
experimentalEndpoint: IC50

compound="COc1ccc(F)cc1[C@H](Cn1c(=O)n(C(C)(C)C(=O)NC(C)C)c(=O)c2c(C)c(-n3cccn3)sc21)OC(C)C.I [Compound I-1]" assayedsystem=UniProt:Q00955 valuemeasured="0.6 to 3 nM"
compound="COc1ccc(F)cc1[C@H](Cn1c(=O)n(C(C)(C)C(=O)N2CCCC2)c(=O)c2c(C)c(-n3cccn3)sc21)OC[C@@H](C)O [Compound I-37]" assayedsystem=UniProt:Q00955 valuemeasured="0.6 to 3 nM"
compound="COCCO[C@@H](Cn1c(=O)n([C@H](C)C(=O)N2CCCC2)c(=O)c2c(C)c(-n3cccn3)sc21)c1cc(F)ccc1OC [Compound I-76]" assayedsystem=UniProt:Q00955 valuemeasured="3 to 10 nM"
compound="COc1ccc(F)cc1[C@H](Cn1c(=O)n(C(C)C(=O)N2CCCC2)c(=O)c2c(C)c(-n3cccn3)sc21)OCCO (stereo partly drawn) [Compound I-58]" assayedsystem=UniProt:Q00955 valuemeasured="0.6 to 3 nM"
compound="COCCOc1ccc(F)cc1[C@H](Cn1c(=O)n(C(C)(C)C(N)=O)c(=O)c2c(C)c(-n3cccn3)sc21)OC(C)C [Compound I-63]" assayedsystem=UniProt:Q00955 valuemeasured="0.6 to 3 nM"
compound="COc1ccccc1[C@H](Cn1c(=O)n(C(C)(C)C(=O)O)c(=O)c2c(C)c(-n3cccn3)sc21)OCCC#N [Compound I-79]" assayedsystem=UniProt:Q00955 valuemeasured="0.6 to 3 nM"

----------
System: C. parapsilosis ATCC 22019
Experiment: Anti-Fungal (Candida) Activity Assay, broth microtiter MIC
Assay type: cell-based
Conditions: Lodderomyces parapsilosis, ATCC22019; 3 replicates, MIC recorded at 48 h; read-out: MIC C. parapsilosis ATCC 22019
experimentalEndpoint: MIC

compound="COc1ccc(F)cc1[C@H](Cn1c(=O)n(C(C)(C)C(=O)N2CCCC2)c(=O)c2c(C)c(-n3cccn3)sc21)OCC(C)(C)O [Compound I-42]" valuemeasured="> 4.1 µg/mL"
compound="COc1ccccc1[C@H](Cn1c(=O)n(C(C)(C)C(N)=O)c(=O)c2c(C)c(-n3cccn3)sc21)OCCC#N [Compound I-83]" valuemeasured="> 4.1 µg/mL"
compound="COc1ccc(F)cc1[C@H](Cn1c(=O)n(C(C)(C)C(N)=O)c(=O)c2c(C)c(-n3cccn3)sc21)OCCC#N [Compound I-77]" valuemeasured="> 4.1 µg/mL"
compound="COc1ccc(F)cc1[C@@H](O)Cn1c(=O)n(C(C)(C)C(=O)O)c(=O)c2c(C)c(-n3cccn3)sc21 [Compound I-85]" valuemeasured="0.25 to 1 µg/mL"
compound="COc1ccc(F)cc1[C@H](Cn1c(=O)n(C(C)C(=O)N2CCCC2)c(=O)c2c(C)c(-n3cccn3)sc21)OC(C)C (stereo partly drawn) [Compound I-32]" valuemeasured="> 4.1 µg/mL"
compound="COc1ccc(F)cc1[C@H](Cn1c(=O)n(C(C)C(=O)O)c(=O)c2c(C)c(-n3cccn3)sc21)OCCO (stereo partly drawn) [Compound I-60]" valuemeasured="> 4.1 µg/mL"
